Provide the reported inhibition at 30 µM of each item.
Target Or Test System: HIV-1 protease (Human immunodeficiency virus type 1 group M subtype B, UniProt P04585)
Construct: The protease (or proteinase) enzyme, consisting of only 99 amino acids
Experiment Notes: In vitro HIV protease inhibitory assay (fluorescently labeled substrate, avidin-polystyrene particles)
Type: biochemical
Reported Conditions: HIV-1 dose 30.0 μM

Below are worked cases with known answers.
                                   compound    measured_endpoint  reported_result
0  CCCC1(Cc2ccccc2)OC(=O)C(C(c2ccccc2)C2CC2)=C1O (stereo not shown)  inhibition at 30 µM             116%
1  CCCC1(CCC)OC(=O)C(C(c2cccc(NS(=O)(=O)c3cn(C)cn3)c2)C2CCCC2)=C1O (stereo not shown)  inhibition at 30 µM            96.8%
2  CC(C)(C)C(C1=C(O)C(Cc2ccccc2)(Cc2ccccc2)OC1=O)c1cccc(NS(=O)(=O)c2ccc(C#N)cc2)c1 (stereo not shown)  inhibition at 30 µM            92.4%

Shift focus to the following entry.
Q) Which measured inhibition at 30 µM value corresponds to CCCC1(CCC)OC(=O)C(C(c2cccc(NS(=O)(=O)c3nc4ccccc4[nH]3)c2)C2CC2)=C1O (stereo not shown) ?
A) 106%
